# experiment_notes: qHTS RealTime-Glo MT Cell Viability Assay in HEK293 cells - 16 hour (AID 1224872); note: top concentration of the series differs between compounds; % is set by controls: 0 for no effect and ±100 for the full control effect; nearly all actives have a fitted effect of over 50% in size
# condition_parameters: RealTime-Glo luminescence; series mostly up to 76.8 µM
Records with an inconclusive call do not appear. The source made the active and inactive calls. Calls come from the whole dose curve; as a rule, active = well fitted cell-killing curve with a large enough effect in the repeat runs; inconclusive = weak or mixed curves, or effect the other way; inactive = flat fitted curve, though single readings scatter.

[
  {
    "molecule": "CC(=O)CC(=O)OC(C)(C)C",
    "activity change, negative = cytotoxicity": "inactive"
  },
  {
    "molecule": "CC/C=C\\CCOC(=O)c1ccccc1O",
    "activity change, negative = cytotoxicity": "inactive"
  },
  {
    "molecule": "C=Cc1ccc(C(C)(C)C)cc1",
    "activity change, negative = cytotoxicity": "inactive"
  },
  {
    "molecule": "CC(C)CO",
    "activity change, negative = cytotoxicity": "inactive"
  },
  {
    "molecule": "CC(Oc1cc(Cl)ccc1Cl)C(=O)O (stereo not given)",
    "activity change, negative = cytotoxicity": "inactive"
  },
  {
    "molecule": "Cn1nnc2c(C(N)=O)ncn2c1=O",
    "activity change, negative = cytotoxicity": "inactive"
  },
  {
    "molecule": "CCCCCc1cccc(=O)o1",
    "activity change, negative = cytotoxicity": "inactive"
  },
  {
    "molecule": "Cc1ccc(C(=O)O)cc1[N+](=O)[O-]",
    "activity change, negative = cytotoxicity": "inactive"
  },
  {
    "molecule": "O=C1c2ccccc2C(=O)c2cc(Cl)ccc21",
    "activity change, negative = cytotoxicity": "4.83% [at 6.97 µM] (inactive)"
  },
  {
    "molecule": "CCCC(CC)c1ccccc1 (stereo not given)",
    "activity change, negative = cytotoxicity": "inactive"
  },
  {
    "molecule": "CCCCCCCCCCCCCCC(=O)NC(CO)CCCCCCCCCCCCCC (stereo not given)",
    "activity change, negative = cytotoxicity": "inactive"
  },
  {
    "molecule": "CC(C)c1ccc(C=O)cc1",
    "activity change, negative = cytotoxicity": "inactive"
  },
  {
    "molecule": "CC(=O)c1cc(C)oc1C",
    "activity change, negative = cytotoxicity": "inactive"
  },
  {
    "molecule": "O=C(Cl)c1ccccc1[N+](=O)[O-]",
    "activity change, negative = cytotoxicity": "inactive"
  },
  {
    "molecule": "C#CCN[C@@H]1CCc2ccccc21",
    "activity change, negative = cytotoxicity": "inactive"
  }
]

====

Items are presented alongside their recorded activity change, negative = inhibition.
# assayed_target: Cytochrome P450 2D6 (Homo sapiens) (UniProt P10635)
# Sequence (P10635 whole entry, looked up): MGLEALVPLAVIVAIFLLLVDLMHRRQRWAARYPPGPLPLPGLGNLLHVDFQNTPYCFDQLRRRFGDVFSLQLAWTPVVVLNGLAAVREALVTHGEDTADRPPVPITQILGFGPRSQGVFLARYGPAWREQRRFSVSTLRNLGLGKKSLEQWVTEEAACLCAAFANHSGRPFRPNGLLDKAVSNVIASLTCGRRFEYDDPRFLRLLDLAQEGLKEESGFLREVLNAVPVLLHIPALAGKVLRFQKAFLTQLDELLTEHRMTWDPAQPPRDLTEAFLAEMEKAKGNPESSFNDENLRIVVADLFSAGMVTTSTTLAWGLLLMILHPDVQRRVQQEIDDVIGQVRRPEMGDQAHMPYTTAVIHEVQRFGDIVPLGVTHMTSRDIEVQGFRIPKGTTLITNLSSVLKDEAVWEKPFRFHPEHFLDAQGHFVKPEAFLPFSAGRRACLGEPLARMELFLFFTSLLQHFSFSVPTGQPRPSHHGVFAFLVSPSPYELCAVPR
# experiment_notes: Cytochrome P450 Family 2 Subfamily D Member 6 (CYP2D6) small molecule antagonists: luciferase reporter qHTS assay (AID 1671196); note: % is set by controls: 0 for no effect and ±100 for the full control effect; nearly all actives have a fitted effect of over 50% in size
# condition_parameters: P450-Glo CYP2D6 enzyme assay, luciferin luminescence, 1 h; series mostly up to 115 µM
Records with an inconclusive call do not appear. Calls of active or inactive are those of the source. Calls come from the whole dose curve; as a rule, active = well fitted inhibition curve with a large enough effect in the repeat runs; inconclusive = weak or mixed curves; inactive = no such curve, though single readings can be large or run the other way.

[
  {
    "record_smiles": "O=S(=O)(O)c1ccc2c(N=Nc3ccc(S(=O)(=O)O)c4ccccc34)c(O)c(S(=O)(=O)O)cc2c1",
    "assayed_target": "Cytochrome P450 2D6 (Homo sapiens) (UniProt P10635)",
    "activity change, negative = inhibition": "-11.1% [at 10.5 µM] (inactive)"
  },
  {
    "record_smiles": "[O]=[Mo](=[O])=[O]",
    "assayed_target": "Cytochrome P450 2D6 (Homo sapiens) (UniProt P10635)",
    "activity change, negative = inhibition": "-4.35% [at 23.6 µM] (inactive)"
  },
  {
    "record_smiles": "N[C@@H](CSCCCO)C(=O)O",
    "assayed_target": "Cytochrome P450 2D6 (Homo sapiens) (UniProt P10635)",
    "activity change, negative = inhibition": "-4.36% [at 23.6 µM] (inactive)"
  },
  {
    "record_smiles": "CC1(C)CC(OC(=O)CCCCCCCCC(=O)OC2CC(C)(C)NC(C)(C)C2)CC(C)(C)N1",
    "assayed_target": "Cytochrome P450 2D6 (Homo sapiens) (UniProt P10635)",
    "activity change, negative = inhibition": "-17.8% [at 23.6 µM] (inactive)"
  },
  {
    "record_smiles": "CCn1cc(C(=O)O)c(=O)c2cnc(N3CCCC3)nc21",
    "assayed_target": "Cytochrome P450 2D6 (Homo sapiens) (UniProt P10635)",
    "activity change, negative = inhibition": "-1.62% [at 10.5 µM] (inactive)"
  }
]
